assay: in vitro
Counter-ions that a name gives are not always drawn.
experimental readout: cytotoxicity at 10 µM (%)
Give bare numbers, in %.

[[record]]
compound = "C=CCc1ccc2c(c1)OCO2 [SAFROLE]"
experimental_readout = "cytotoxicity at 10 µM"
measurement_units = "%"
experimental_result = -35.3

[[record]]
compound = "CCCCCCCCCCCC1=C(O)C(=O)C=C(O)C1=O [EMBELIN]"
experimental_readout = "cytotoxicity at 10 µM"
measurement_units = "%"
experimental_result = 8.8

[[record]]
compound = "O=C(O)c1cc(O)c2c(c1)[C@H]([C@H]1c3cc(C(=O)O)cc(O)c3C(=O)c3c(O[C@@H]4O[C@H](CO)[C@@H](O)[C@H](O)[C@H]4O)cccc31)c1cccc(O[C@@H]3O[C@H](CO)[C@@H](O)[C@H](O)[C@H]3O)c1C2=O [SENNOSIDE A]"
experimental_readout = "cytotoxicity at 10 µM"
measurement_units = "%"
experimental_result = -6.1

[[record]]
compound = "COC(=O)[C@]1(C)CC[C@]2(C)CC[C@]3(C)C4=CC=C5C(=CC(=O)C(O)=C5C)[C@]4(C)CC[C@@]3(C)[C@@H]2C1 [PRISTIMERIN]"
experimental_readout = "cytotoxicity at 10 µM"
measurement_units = "%"
experimental_result = 31.6

[[record]]
compound = "CC1(C)CC[C@]2(C(=O)O)CC[C@]3(C)C(=CC[C@@H]4[C@@]5(C)CC[C@H](O)[C@@](C)(CO)[C@@H]5CC[C@]43C)[C@@H]2C1 [HEDERAGENIN]"
experimental_readout = "cytotoxicity at 10 µM"
measurement_units = "%"
experimental_result = -7.7


Kindly review the next compound as well.
Give reported cytotoxicity at 10 µM value for NCCc1c[nH]cn1 [HISTAMINE DIHYDROCHLORIDE]
1.3
